# System: Mycobacterium tuberculosis Erdman (autoluminescent)
# run_description: Einf, fitted maximum growth inhibition of three-drug combination (fraction); higher = stronger maximal inhibition
# applied_conditions: in vitro model: acidic pH 5.7; time point: terminal (~4-5 doublings, model-specific)
quantity_name: Einf
Please reply with the value in numeric form only.

- molecule: "CC[C@@H](CO)NCCN[C@@H](CC)CO [ethambutol] + O=[N+]([O-])c1cn2c(n1)OC[C@@H](OCc1ccc(OC(F)(F)F)cc1)C2 [pretomanid] + CO[C@H]1/C=C/O[C@@]2(C)Oc3c(C)c(O)c4c(O)c(c(/C=N/N5CCN(C6CCCC6)CC5)c(O)c4c3C2=O)NC(=O)/C(C)=C\\C=C\\[C@H](C)[C@H](O)[C@@H](C)[C@@H](O)[C@@H](C)[C@H](OC(C)=O)[C@@H]1C [rifapentine]"
  recorded_value: 0.965

State the recorded Einf for this entry: CC(C)/N=c1\cc2n(-c3ccc(Cl)cc3)c3ccccc3nc-2cc1Nc1ccc(Cl)cc1 [clofazimine] + CC(=O)NC[C@H]1CN(c2ccc(N3CCOCC3)c(F)c2)C(=O)O1 [linezolid] + COc1c(N2C[C@@H]3CCCN[C@@H]3C2)c(F)cc2c(=O)c(C(=O)O)cn(C3CC3)c12 [moxifloxacin]
0.915

State the recorded Einf for this entry: CC[C@@H](CO)NCCN[C@@H](CC)CO [ethambutol] + COc1c(N2C[C@@H]3CCCN[C@@H]3C2)c(F)cc2c(=O)c(C(=O)O)cn(C3CC3)c12 [moxifloxacin] + CO[C@H]1/C=C/O[C@@]2(C)Oc3c(C)c(O)c4c(O)c(c(/C=N/N5CCN(C6CCCC6)CC5)c(O)c4c3C2=O)NC(=O)/C(C)=C\C=C\[C@H](C)[C@H](O)[C@@H](C)[C@@H](O)[C@@H](C)[C@H](OC(C)=O)[C@@H]1C [rifapentine]
0.959

====

Listed here are compounds together with their documented AUC25.
# Tested on: Mycobacterium tuberculosis Erdman (autoluminescent)
# run_description: AUC25, normalised area under dose response up to IC25 (three-drug combination) (fraction (0-1)); higher = more potent at low dose
# applied_conditions: in vitro model: acidic pH 5.7; time point: constant (~7 days, model-specific)
Please reply with the value in numeric form only.

- compound: "NC(=O)c1cnccn1 [pyrazinamide] + CO[C@H]1/C=C/O[C@@]2(C)Oc3c(C)c(O)c4c(O)c(c(/C=N/N5CCN(C6CCCC6)CC5)c(O)c4c3C2=O)NC(=O)/C(C)=C\\C=C\\[C@H](C)[C@H](O)[C@@H](C)[C@@H](O)[C@@H](C)[C@H](OC(C)=O)[C@@H]1C [rifapentine] + CO[C@H]1/C=C/O[C@@]2(C)Oc3c(C)c(O)c4c(O)c(c(/C=N/N5CCN(C)CC5)c(O)c4c3C2=O)NC(=O)/C(C)=C\\C=C\\[C@H](C)[C@H](O)[C@@H](C)[C@@H](O)[C@@H](C)[C@H](OC(C)=O)[C@@H]1C"
  AUC25: 0.0803

State the recorded AUC25 for this entry: COc1nc2ccc(Br)cc2cc1[C@@H](c1ccccc1)[C@@](O)(CCN(C)C)c1cccc2ccccc12 [bedaquiline] + NNC(=O)c1ccncc1 [isoniazid] + NC(=O)c1cnccn1 [pyrazinamide]
0.0904

State the recorded AUC25 for this entry: COc1nc2ccc(Br)cc2cc1[C@@H](c1ccccc1)[C@@](O)(CCN(C)C)c1cccc2ccccc12 [bedaquiline] + CC(C)/N=c1\cc2n(-c3ccc(Cl)cc3)c3ccccc3nc-2cc1Nc1ccc(Cl)cc1 [clofazimine] + CC[C@@H](CO)NCCN[C@@H](CC)CO [ethambutol]
0.0844
